B1: CPEB3 Ribozyme (parent)
chain: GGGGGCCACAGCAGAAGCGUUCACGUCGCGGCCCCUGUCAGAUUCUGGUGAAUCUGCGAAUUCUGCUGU

Variants of: B1
Test: self-cleavage, relative activity (ratio to wild type); higher = more cleavage; co-transcriptional
Please provide measured self-cleavage for the entries that follow.
Would you mind answering with just the numeric figure?

Could you share which self-cleavage value was measured for C22U A42C ?
0.247

Need self-cleavage of A15U U26A , thanks.
0.34

# self-cleavage lookup, item G14U G47U
0.857

Reported self-cleavage for U53A G58U : what is it?
0.944

What value of measured self-cleavage is listed for G4U U62C ?
0.369

For A15U C54G , what is its reported self-cleavage?
0.412

Consider the variant shown here: G1U G56C What is its recorded self-cleavage?
0.105

Field request: self-cleavage | item: C34U A60C
0.371

So what's the measured self-cleavage for this one? U21A A51U
0.952

I'd like to know its self-cleavage. The variant in question is C24A C33A
0.38

Name the reported self-cleavage value associated with the variant U55C U62G
0.559

# lookup: self-cleavage of G17U G25A
0.143

For the variant shown here, G14C A51G , give the reported self-cleavage.
0.666

Recorded self-cleavage of U21G A52G , please.
0.615

Looking for the measured self-cleavage of A16G U67C , can you help?
0.935

Item G19A G56C has what recorded self-cleavage?
0.0715

Returns the measured self-cleavage for the input variant. Input: G25A C54A
0.203

Bench note: what self-cleavage did A23U C63G show?
0.858

Entry G17U A60U : reported self-cleavage = ?
0.229

What measured self-cleavage goes with G14A G25C ?
0.105

self-cleavage lookup needed for G2A C9A , thanks.
0.435

Name the reported self-cleavage value associated with the variant U21A U36A
0.253

Using the record for A42G A52C , report its self-cleavage.
0.854

Consider the variant shown here: C7G C66G What is its recorded self-cleavage?
0.176

Which self-cleavage is reported for this variant? C6A G50C
0.594

What does the data say about its self-cleavage? Entry: G14U U55G
0.268

Any idea what self-cleavage was measured for C54U G56U ?
0.75

Endpoint output: self-cleavage of G19U C22A . Value?
0.14

Any idea what self-cleavage was measured for U21G C29G ?
0.158

I am curious: what self-cleavage value has been reported for A16G C63G ?
0.527

What does the data say about its self-cleavage? Entry: G4U U62G
0.349

May I ask what self-cleavage has been recorded for A52G C57G ?
0.23

Look up self-cleavage for this variant: G3U C39A
0.0589

Item G2A U61C has what recorded self-cleavage?
0.0999

# get_value(readout='self-cleavage', item= C22A G28U )
0.159

Can you look up the measured self-cleavage of U38G G50U for me?
0.271

Please give the measured self-cleavage for this variant: U61A U62C
0.829

Any idea what its self-cleavage is? The variant is A42G G48C
0.989

Returns the measured self-cleavage for the input variant. Input: C39G G41U
0.436

If you can, please state the reported self-cleavage value of G25A U46C .
0.216

Need self-cleavage of A15G G30A , thanks.
0.917

Tell me the measured self-cleavage of G25C C27U , please.
0.172

Can you share its self-cleavage? I mean this variant: A13U A23U
0.963

Quick one: self-cleavage of U21A U53G ?
0.863

Requested read-out: self-cleavage. Entry: C12U C29G
0.317

Which value of self-cleavage has been reported for C18U G65C in the records?
0.363
